# Subject of test: Human recombinant PDE4 (Genbank accession no NM-006203) (Homo sapiens (Human))
# Sequence (Q08499 other isoform, or with tags, fused parts or gaps): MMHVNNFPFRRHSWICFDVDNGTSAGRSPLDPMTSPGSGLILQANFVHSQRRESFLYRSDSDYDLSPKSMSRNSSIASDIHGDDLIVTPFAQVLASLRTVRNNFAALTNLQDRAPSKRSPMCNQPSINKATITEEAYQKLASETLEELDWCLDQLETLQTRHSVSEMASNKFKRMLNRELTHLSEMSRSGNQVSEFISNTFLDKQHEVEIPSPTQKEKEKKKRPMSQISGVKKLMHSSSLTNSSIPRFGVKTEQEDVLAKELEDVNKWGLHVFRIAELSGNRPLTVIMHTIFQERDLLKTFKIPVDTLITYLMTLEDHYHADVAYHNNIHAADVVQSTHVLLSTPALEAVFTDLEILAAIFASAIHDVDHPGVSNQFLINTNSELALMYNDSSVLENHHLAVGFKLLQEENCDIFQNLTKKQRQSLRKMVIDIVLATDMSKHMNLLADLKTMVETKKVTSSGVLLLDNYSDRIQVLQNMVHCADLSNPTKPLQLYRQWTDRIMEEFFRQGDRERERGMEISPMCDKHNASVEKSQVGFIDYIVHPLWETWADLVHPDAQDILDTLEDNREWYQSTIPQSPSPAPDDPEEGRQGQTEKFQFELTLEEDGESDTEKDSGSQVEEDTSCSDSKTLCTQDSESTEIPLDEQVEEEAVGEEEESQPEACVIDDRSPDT
# Procedure text: PDE4 Assay (SPA, cAMP cleavage)
# Assay type: biochemical
# Condition notes: human recombinant PDE4, 1 hour incubation, cAMP 1x10-5 M; read-out: IC50 (PDE4)
Task for the reader: assign each of the following molecules its reported pIC50.
API: returns pIC50 as number; meaning -log10 of concentration in mol/L.

Quick check: pIC50 of O=C(Cc1c(Cl)c[n+]([O-])cc1Cl)c1ccc(OC(F)F)c2c1OC1(CCOCC1)O2 ?
8.30

Quick check: pIC50 of O=C(Cc1c(Cl)cncc1Cl)c1ccc(OC(F)F)c2c1OCC1(CCOCC1)CO2 ?
8.22

Quick check: pIC50 of O=C(Nc1c(Cl)cncc1Cl)c1ccc(OC(F)F)c2c1OC1(CCSCC1)O2 ?
8.70

Quick check: pIC50 of O=C(Cc1c(Cl)cncc1Cl)c1ccc(OC(F)F)c2c1OC1(CCS(=O)(=O)CC1)O2 ?
7.89

Quick check: pIC50 of O=C(Cc1c(Cl)cncc1Cl)c1ccc(OC(F)F)c2c1OCC1(COC1)CO2 ?
8.22

Quick check: pIC50 of O=C(Nc1c(Cl)c[n+]([O-])cc1Cl)c1ccc(OC(F)F)c2c1OC1(CCS(=O)(=O)CC1)O2 ?
6.97

Quick check: pIC50 of O=C(Cc1c(Cl)c[n+]([O-])cc1Cl)c1ccc(OC(F)F)c2c1OCC1(CCOCC1)CO2 ?
8.40

Quick check: pIC50 of O=C(Cc1c(Cl)c[n+]([O-])cc1Cl)c1ccc(OC(F)F)c2c1OC1(CCS(=O)(=O)CC1)O2 ?
7.80

Quick check: pIC50 of O=C(Cc1c(Cl)cncc1Cl)c1ccc(OC(F)F)c2c1OC1(CCOCC1)O2 ?
8.15
